pIC50: −log10 of the molar value.
Reported pIC50 for target or system Receptor tyrosine-protein kinase erbB-2 (Homo sapiens, UniProt P04626), by entry.
readout: pIC50

Illustrative cases are given below, each with its answer.
C#Cc1cccc(Nc2c(C#N)cnc3cc(OCCOC)c(OCCOC)cc23)c1 : 4.93
C=CC(=O)Nc1cc2c(Nc3ccc(F)c(Cl)c3)c(C#N)cnc2cc1OCCCN1CCOCC1 : 5.77

P. COc1cc2ncc(C#N)c(Nc3ccc(F)c(Cl)c3)c2cc1OCCCN1CCOCC1
Q. CCOc1cc2ncc(C#N)c(Nc3ccc(F)c(Cl)c3)c2cc1NC(=O)/C=C/CN(C)C
Query string: Short answer wanted: higher pIC50, P or Q ? Indicate which entry you chose by stating its label.
Result string: Q
(Q: 5.91, P: 4.83)

====

Molecular target: Epidermal growth factor receptor (Homo sapiens, UniProt P00533)
Sequence (P00533 whole entry): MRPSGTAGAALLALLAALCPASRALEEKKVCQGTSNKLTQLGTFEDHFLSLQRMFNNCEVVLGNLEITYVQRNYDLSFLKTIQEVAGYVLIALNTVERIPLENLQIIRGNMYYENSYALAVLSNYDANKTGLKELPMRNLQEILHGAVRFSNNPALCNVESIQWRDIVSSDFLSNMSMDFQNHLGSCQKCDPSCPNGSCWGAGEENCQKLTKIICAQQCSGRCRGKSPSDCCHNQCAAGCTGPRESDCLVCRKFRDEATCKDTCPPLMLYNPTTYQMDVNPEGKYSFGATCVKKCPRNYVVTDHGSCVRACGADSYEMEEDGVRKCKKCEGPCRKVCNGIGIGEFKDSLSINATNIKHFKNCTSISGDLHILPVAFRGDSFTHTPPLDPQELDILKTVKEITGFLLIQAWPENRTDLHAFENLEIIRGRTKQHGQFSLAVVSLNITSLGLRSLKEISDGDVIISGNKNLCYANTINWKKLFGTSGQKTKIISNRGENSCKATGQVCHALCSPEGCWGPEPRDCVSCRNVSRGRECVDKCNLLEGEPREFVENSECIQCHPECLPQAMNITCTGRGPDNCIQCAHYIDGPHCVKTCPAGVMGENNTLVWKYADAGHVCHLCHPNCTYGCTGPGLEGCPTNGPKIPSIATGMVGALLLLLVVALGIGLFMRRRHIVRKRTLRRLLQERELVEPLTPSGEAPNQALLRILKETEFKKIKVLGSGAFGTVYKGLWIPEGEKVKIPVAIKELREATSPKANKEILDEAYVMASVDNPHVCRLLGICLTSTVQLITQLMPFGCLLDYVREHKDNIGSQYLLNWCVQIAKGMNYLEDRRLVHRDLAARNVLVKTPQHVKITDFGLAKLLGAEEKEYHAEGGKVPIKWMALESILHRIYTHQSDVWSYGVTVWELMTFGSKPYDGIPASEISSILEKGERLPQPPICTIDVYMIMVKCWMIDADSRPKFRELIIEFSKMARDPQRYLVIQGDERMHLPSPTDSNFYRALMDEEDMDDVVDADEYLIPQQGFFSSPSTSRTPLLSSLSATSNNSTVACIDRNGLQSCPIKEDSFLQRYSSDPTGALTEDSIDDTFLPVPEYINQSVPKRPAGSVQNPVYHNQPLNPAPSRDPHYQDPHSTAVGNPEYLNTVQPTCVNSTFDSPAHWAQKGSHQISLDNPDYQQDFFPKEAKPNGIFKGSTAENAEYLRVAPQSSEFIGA
readout: IC50 (nM)
Numeric only. Scale: nM

Query string: Recorded IC50 for C=CC(=O)Nc1cc2c(Nc3ccc(F)c(Cl)c3)c(C#N)cnc2cc1OCCCN1CCOCC1 , please?
Result string: 80
